Consider the following IC50 values measured on mTR-GCUG (Mus musculus).
Sequence (Q9JLT4 35-524): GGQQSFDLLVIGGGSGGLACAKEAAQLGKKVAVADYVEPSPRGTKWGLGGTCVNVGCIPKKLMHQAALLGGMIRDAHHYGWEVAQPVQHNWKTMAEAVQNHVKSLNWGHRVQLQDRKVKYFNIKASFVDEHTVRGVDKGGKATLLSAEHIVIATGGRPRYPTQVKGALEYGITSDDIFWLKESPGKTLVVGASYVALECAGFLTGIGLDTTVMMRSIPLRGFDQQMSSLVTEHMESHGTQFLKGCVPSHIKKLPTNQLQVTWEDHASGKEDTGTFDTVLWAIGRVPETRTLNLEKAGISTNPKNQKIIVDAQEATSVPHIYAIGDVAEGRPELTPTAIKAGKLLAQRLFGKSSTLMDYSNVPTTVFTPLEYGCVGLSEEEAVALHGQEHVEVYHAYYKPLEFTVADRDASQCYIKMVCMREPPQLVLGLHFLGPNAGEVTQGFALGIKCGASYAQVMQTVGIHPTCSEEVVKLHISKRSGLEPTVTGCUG
Write the value in µM as a bare number.

- molecule: "CC(=O)OC[C@H]1O[C@@H]([S-])[C@H](OC(C)=O)[C@@H](OC(C)=O)[C@@H]1OC(C)=O.CCP(CC)CC.[Au+] [auranofin]"
  IC50 [µM]: 0.075

Below: the item to evaluate.
Q: Query: IC50; subject: OC[C@H]1O[C@H]([S-])[C@H](O)[C@@H](O)[C@@H]1O.[Au+] [aurothioglucose]
Ans: 0.083
